Target: Leucine aminopeptidase (Plasmodium falciparum (isolate 3D7)) (UniProt Q8IL11)
Sequence (Q8IL11 whole entry, looked up): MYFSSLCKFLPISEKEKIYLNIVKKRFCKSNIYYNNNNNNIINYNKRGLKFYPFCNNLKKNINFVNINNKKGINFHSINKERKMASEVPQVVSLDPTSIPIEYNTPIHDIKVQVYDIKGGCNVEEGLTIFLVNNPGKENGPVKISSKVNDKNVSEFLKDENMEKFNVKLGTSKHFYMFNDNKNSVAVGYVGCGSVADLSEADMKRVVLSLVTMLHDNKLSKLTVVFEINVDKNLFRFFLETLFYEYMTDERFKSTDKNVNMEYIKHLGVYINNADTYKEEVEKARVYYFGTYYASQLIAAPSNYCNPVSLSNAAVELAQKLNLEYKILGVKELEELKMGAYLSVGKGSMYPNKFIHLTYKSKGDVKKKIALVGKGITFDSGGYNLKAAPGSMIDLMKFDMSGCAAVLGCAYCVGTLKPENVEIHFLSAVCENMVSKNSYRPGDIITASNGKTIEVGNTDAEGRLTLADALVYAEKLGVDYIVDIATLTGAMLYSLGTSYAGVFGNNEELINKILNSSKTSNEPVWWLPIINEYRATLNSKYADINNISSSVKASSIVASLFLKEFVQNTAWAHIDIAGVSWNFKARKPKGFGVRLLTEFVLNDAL
Experiment: P. falciparum M17LAP inhibitors, primary screen, biochemical, fluorogenic H-Leu-NHMec substrate, 1536-well (AID 1619);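 note: plate controls were full reaction with DMSO carrier for no effect and no enzyme background for full effect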
Settings: recombinant M17LAP, H-Leu-NHMec fluorogenic kinetic assay; at 30 µM; stronger effect = higher value
Among all 220,000 compounds or so, about 830 (0.38%) were called active. Only a sample is shown. Results with a measured potency or affinity are listed apart.
Catalogue of molecules with associated inhibition
Only the number, expressed in %, is required.

// known answers, use as guide
molecule	inhibition / %
CC(=O)Cc1nsc(NC(=O)c2ccccc2)n1	9.29
Cc1ccc(C(=O)Nc2nnc(C)s2)cc1	11.4
CC(=O)c1cc(CN2CCN(CC=C(C)C)C(CCO)C2)cs1 (stereo not given)	-1.16
O=C(Nc1nc(=O)c2ccccc2s1)c1ccccc1	6.62
CC(C)(C)Nc1nc2cc([N+](=O)[O-])ccc2o1	2.86

Lab note: next molecule to report on.
**Query** Please look up its inhibition: `CCOc1ccc(OCC)c(NC(=O)CSCC(=O)O)c1`
**Result** 2.8

====

Target: Leucine aminopeptidase (Plasmodium falciparum (isolate 3D7))
Test: P. falciparum M17LAP inhibitors, primary screen, biochemical, fluorogenic H-Leu-NHMec substrate, 1536-well (AID 1619)
Conditions: recombinant M17LAP, H-Leu-NHMec fluorogenic kinetic assay; at 30 µM; stronger effect = higher value
Among all 220,000 compounds or so, about 830 (0.38%) were called active. These entries were drawn from the full list. Entries with a potency or affinity are not part of this list.
observed-property: inhibition (%)
The answer is to be given in %; state only the numeric part.

Take a look at these entries with their results.
molecule	target-or-test-system	inhibition (%)
CN(C)c1ccc(/C=N/N=C(N)N)cc1[N+](=O)[O-]	Leucine aminopeptidase (Plasmodium falciparum (isolate 3D7))	58.3
Cc1nn(-c2ccccc2)c(C)c1C(=O)NCc1ccc(F)cc1	Leucine aminopeptidase (Plasmodium falciparum (isolate 3D7))	-15.7
COc1ccc(/C=C2\NC(=O)C(C=NCc3ccccc3)=C2O)cc1	Leucine aminopeptidase (Plasmodium falciparum (isolate 3D7))	0.26

**Query** Entry `Cc1ccc(/C=C2\NC(=S)NC2=O)cc1[N+](=O)[O-]` : reported inhibition = ?
**Result** -1.94

**Query** // lookup inhibition for `O=C(NCCc1c[nH]c2ccccc12)/C(=C/c1cccnc1)NC(=O)c1cccs1`
**Result** 7.81

**Query** May I ask what inhibition has been recorded for `CC(=O)Nc1cccc(C(=O)Nc2ccccc2C(=O)O)c1` ?
**Result** 4.74

**Query** # get_value(readout='inhibition', item= CC(C)c1ccc(Nc2nnc(SC3CCOC3=O)s2)cc1 (stereo not given) )
**Result** 32.8

====

Target: Leucine aminopeptidase (Plasmodium falciparum (isolate 3D7)) (UniProt Q8IL11)
Test: P. falciparum M17LAP inhibitors, primary screen, biochemical, fluorogenic H-Leu-NHMec substrate, 1536-well (AID 1619)
Settings: recombinant M17LAP, H-Leu-NHMec fluorogenic kinetic assay; at 30 µM; stronger effect = higher value
About 830 (0.38%) of roughly 220,000 compounds were called active. The list is a sample of the results. Potency and affinity values are given separately.
Entries and their inhibition values follow.
Lab book: enter the figure in %, no units written.

The examples below pair each entry with its known result.
chemical-smiles	target-or-test-system	inhibition, %
O=C(O)c1ccc(COc2ccccc2/C=C2\NC(=O)N(Cc3ccccc3)C2=O)cc1	Leucine aminopeptidase (Plasmodium falciparum (isolate 3D7)) (UniProt Q8IL11)	20.1
O=C(NCc1ccccc1)N1CCN(c2ccc(F)cc2)CC1	Leucine aminopeptidase (Plasmodium falciparum (isolate 3D7)) (UniProt Q8IL11)	13.1
CCC(C)(C)n1nnnc1CN1CCN(C(c2ccccc2)c2ccccc2)CC1	Leucine aminopeptidase (Plasmodium falciparum (isolate 3D7)) (UniProt Q8IL11)	7.37
O=C(Nc1ccc(O)cc1C(=O)O)c1ccc2c(c1)C(=O)N(Cc1ccco1)C2=O	Leucine aminopeptidase (Plasmodium falciparum (isolate 3D7)) (UniProt Q8IL11)	-9.39
Cc1ccccc1OCc1nc2ccccc2c(=O)n1N	Leucine aminopeptidase (Plasmodium falciparum (isolate 3D7)) (UniProt Q8IL11)	-9.96

Please turn your attention to the following entry.
**Query** Dear colleague, I am looking for the recorded inhibition of the following molecule: `Cc1cccc(-c2n[nH]c(=S)n2-c2ccccc2)c1[N+](=O)[O-]`
**Result** 0.12

====

Target: Leucine aminopeptidase (Plasmodium falciparum (isolate 3D7))
Test: P. falciparum M17LAP inhibitors, primary screen, biochemical, fluorogenic H-Leu-NHMec substrate, 1536-well (AID 1619);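 note: plate controls were full reaction with DMSO carrier for no effect and no enzyme background for full effect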
Settings: recombinant M17LAP, H-Leu-NHMec fluorogenic kinetic assay; at 30 µM; stronger effect = higher value
Screen size: about 220,000 compounds; about 830 (0.38%) were called active. A selection follows. Potency and affinity values are given separately.
observed-property: inhibition (%)
Could you give me the number in %? Just the number is fine.

compound	units-symbol	inhibition
CCN1CCN(Cc2ccc(NC(=O)Nc3ccccc3OC)cc2)CC1	%	-5.76

**Query** Looking for the measured inhibition of `Cc1cc(Nc2ccc([N+](=O)[O-])cc2)nc2ccccc12` , can you help?
**Result** 13.7

**Query** Quick one: inhibition of `Cc1ccc(NC(=O)Nc2ccc(C(=O)N3CCOCC3)cc2)cc1` ?
**Result** 41

**Query** Reported inhibition, compound CCCc1[nH]nc2c1C(c1cccnc1)C(C#N)=C(N)O2 (stereo unspecified) : ____
**Result** 9.46

**Query** Query: inhibition; subject: `N#CCCn1cc(C(=O)N2CCCCC2)c(-c2cccc([N+](=O)[O-])c2)n1`
**Result** 4.89

**Query** Item under review: CCCc1[nH]nc2c1C(Cc1ccccc1)C(C#N)=C(N)O2 (stereo unspecified) . Reported inhibition?
**Result** 28.5

====

inhibition values, listed per item
Molecular target: Leucine aminopeptidase (Plasmodium falciparum (isolate 3D7)) (UniProt Q8IL11)
Test: P. falciparum M17LAP inhibitors, primary screen, biochemical, fluorogenic H-Leu-NHMec substrate, 1536-well (AID 1619);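 note: plate controls were full reaction with DMSO carrier for no effect and no enzyme background for full effect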
Conditions: recombinant M17LAP, H-Leu-NHMec fluorogenic kinetic assay; at 30 µM; stronger effect = higher value
Hit rate of the full screen: of about 220,000 compounds, about 830 (0.38%) were called active. A selection follows. Results with a measured potency or affinity are listed apart.
Respond numerically; units are % and should not be typed.

Observe how each entry below is paired with its result.
compound	target-or-test-system	inhibition, %
Cc1ccc(S(=O)(=O)Nc2ccccc2C(=O)Nc2ccc(S(=O)(=O)Nc3nccc(C)n3)cc2)cc1	Leucine aminopeptidase (Plasmodium falciparum (isolate 3D7)) (UniProt Q8IL11)	-17.2
CCOC(=O)CSc1nnc(-c2ccco2)n1-c1ccccc1	Leucine aminopeptidase (Plasmodium falciparum (isolate 3D7)) (UniProt Q8IL11)	11.8
CCCCn1c(SCC(=O)c2ccc(O)c(O)c2)nc2ccsc2c1=O	Leucine aminopeptidase (Plasmodium falciparum (isolate 3D7)) (UniProt Q8IL11)	19.5
Cc1c(O)ccc(-c2n[nH]c(C(=O)O)c2-c2nc3ccccc3s2)c1O	Leucine aminopeptidase (Plasmodium falciparum (isolate 3D7)) (UniProt Q8IL11)	-2.67
CCCn1nnc(NC(=O)c2ccco2)n1	Leucine aminopeptidase (Plasmodium falciparum (isolate 3D7)) (UniProt Q8IL11)	-183

**Query** What value of inhibition has been recorded for this entry: `CCN1CCN(CCn2c(=S)[nH]c3cc4c(cc3c2=O)OCO4)CC1`
**Result** 10.8

**Query** Field request: inhibition | item: `Cc1ccc(-c2nn(Cc3ccccc3)cc2/C=C/C(=O)O)cc1`
**Result** 38.8

**Query** Bench note: what inhibition did `CCOC(=O)CSc1nnc(-c2ccoc2C)n1-c1ccc(C)cc1` show?
**Result** 14.1

**Query** Query: inhibition; subject: `Cc1ccc(CNc2ccc(S(=O)(=O)N3CCOCC3)cc2[N+](=O)[O-])cc1`
**Result** -4.05

**Query** Need inhibition, item COc1ccc(C(C)(C)C)cc1NC(=O)C1C2C=CC(C2)C1C(=O)O (stereo not given)
**Result** 7.82

**Query** What does the record list as inhibition for COCCn1nnnc1C(c1ccccc1OC)N1CCN(c2ccccc2F)CC1 (stereo not given) ?
**Result** 0.44

**Query** # input compound: `O=C(O)CCC(=O)Nc1ccc(N2CCCCC2)c(C(=O)O)c1` ; wanted: its inhibition
**Result** 10.6

====

Molecular target: Leucine aminopeptidase (Plasmodium falciparum (isolate 3D7)) (UniProt Q8IL11)
Test: P. falciparum M17LAP inhibitors, primary screen, biochemical, fluorogenic H-Leu-NHMec substrate, 1536-well (AID 1619);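 note: plate controls were full reaction with DMSO carrier for no effect and no enzyme background for full effect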
Conditions: recombinant M17LAP, H-Leu-NHMec fluorogenic kinetic assay; at 30 µM; stronger effect = higher value
The campaign covered roughly 220,000 compounds. About 830 (0.38%) were called active. The list is a sample of the results. Results with a measured potency or affinity are listed apart.
observed-property: inhibition (%)
Just the number please, in %, no unit attached.

chemical-smiles	target-or-test-system	observed-property	units-symbol	numeric-value
COc1ccccc1Nc1nnc(SCC(=O)N2CCCC2)s1	Leucine aminopeptidase (Plasmodium falciparum (isolate 3D7)) (UniProt Q8IL11)	inhibition	%	28.9
COc1cccc(Nc2nnc(SCC(=O)N3CCOCC3)s2)c1	Leucine aminopeptidase (Plasmodium falciparum (isolate 3D7)) (UniProt Q8IL11)	inhibition	%	31.6
O=C(CN1c2cccc3cccc(c23)S1(=O)=O)Nc1ccccc1	Leucine aminopeptidase (Plasmodium falciparum (isolate 3D7)) (UniProt Q8IL11)	inhibition	%	2.82
CN1/C(=C\C(=O)CSc2nnc(N)s2)C(C)(C)c2ccccc21	Leucine aminopeptidase (Plasmodium falciparum (isolate 3D7)) (UniProt Q8IL11)	inhibition	%	30.2

**Query** Any idea what its inhibition is? The compound is `CN1/C(=C\C(=O)CSc2nnc(NCc3ccccc3)s2)C(C)(C)c2ccccc21`
**Result** -5.09

**Query** Form field: reported inhibition of `O=C(CN1C(=O)c2ccccc2S1(=O)=O)NC1CCCCCC1`
**Result** 5.61

Where these numbers come from: PubChem BioAssay AID1619
